Listed compounds paired with reported Maximum value of change, systolic pressure
Test: Antihypertensive effect and effect on heart rate in spontaneously hypertensive rat (SHR)
Format: in vivo
Conditions: 10 mg/kg, po, single dose, maximum over 1, 3, 5, 7 hours (Table 2)
Quantity name: Maximum value of change, systolic pressure (mmHg)

[[record]]
compound = "CCOC(=O)c1cc2cccc(OCC(O)CN3CCN(c4ccccc4OC)CC3)c2o1 (stereo not shown)"
readout_value = -35.8

[[record]]
compound = "COc1ccc([C@@H]2Sc3ccccc3N(CCN(C)C)C(=O)[C@@H]2OC(C)=O)cc1 [Diltiazem, reference compound]"
readout_value = -12.8

[[record]]
compound = "CC(=O)c1cc2cc(OCC(O)CN3CCN(c4ccccc4C)CC3)ccc2o1 (stereo not shown)"
readout_value = -86.4

[[record]]
compound = "COc1ccccc1N1CCN(CC(O)COc2cccc3cc(C(=O)O)oc23)CC1 (stereo not shown)"
readout_value = -46.9

[[record]]
compound = "COc1ccccc1N1CCN(CC(O)COc2cccc3cc(C(C)O)oc23)CC1 (stereo not shown)"
readout_value = -42.8

[[record]]
compound = "CCOC(=O)c1cc2cc(OCC(O)CN3CCN(c4ccccc4OC)CC3)ccc2o1 (stereo not shown)"
readout_value = -37.6

[[record]]
compound = "CC(=O)c1cc2cccc(OCC(O)CN3CCN(c4ccccc4C)CC3)c2o1 (stereo not shown)"
readout_value = -71.7

[[record]]
compound = "CCOC(=O)c1cc2cc(OCC(O)CN3CCN(c4ccccc4C)CC3)ccc2o1 (stereo not shown)"
readout_value = -57.5

[[record]]
compound = "COc1ccccc1N1CCN(CC(O)COc2cccc3cc(C(C)=O)oc23)CC1 (stereo not shown)"
readout_value = -54.8

[[record]]
compound = "COc1ccccc1N1CCN(CC(O)COc2ccc3oc(C(C)=O)cc3c2)CC1 (stereo not shown)"
readout_value = -56.3

[[record]]
compound = "COc1ccccc1N1CCN(CC(O)COc2cccc3cc(C(N)=O)oc23)CC1 (stereo not shown)"
readout_value = -61.2

[[record]]
compound = "CC(CCc1ccccc1)NCC(O)c1ccc(O)c(C(N)=O)c1 (stereo not shown) [Labetalol, reference compound]"
readout_value = -32.9

[[record]]
compound = "Cc1ccccc1N1CCN(CC(O)COc2cccc3cc(C(C)O)oc23)CC1 (stereo not shown)"
readout_value = -54.9


* * *

Test: Antihypertensive effect and effect on heart rate in spontaneously hypertensive rat (SHR)
Assay type: in vivo
Conditions: 100 mg/kg, po, single dose, maximum over 1, 3, 5, 7 hours (Table 3)
Counter-ions that a name gives are not always drawn.
Listed molecules paired with reported Maximum value of change, systolic pressure
Quantity name: Maximum value of change, systolic pressure (mmHg)

[[record]]
molecule = "NC(=O)c1cc2cccc(OCC(O)CN3CCN(c4cccc(Cl)c4)CC3)c2o1 (centres unmarked) [Ex. 15]"
readout_value = -79.9

[[record]]
molecule = "CC(=O)c1cc2cccc(OCC(O)CN3CCN(c4cccc(Cl)c4)CC3)c2o1 (centres unmarked) [Ex. 8 (HCl salt)]"
readout_value = -44.2

[[record]]
molecule = "CC(CCc1ccccc1)NCC(O)c1ccc(O)c(C(N)=O)c1 (centres unmarked) [Labetalol, reference compound]"
readout_value = -55.0

[[record]]
molecule = "COc1ccc([C@@H]2Sc3ccccc3N(CCN(C)C)C(=O)[C@@H]2OC(C)=O)cc1 [Diltiazem, reference compound]"
readout_value = -79.9

[[record]]
molecule = "COc1ccccc1N1CCN(CC(O)COc2cccc3cc(C#N)oc23)CC1 (centres unmarked) [Ex. 16 (HCl salt)]"
readout_value = -13.3

[[record]]
molecule = "COc1ccccc1N1CCN(CC(O)COc2ccc3oc(C(N)=O)cc3c2)CC1 (centres unmarked) [Ex. 12]"
readout_value = -100.2

[[record]]
molecule = "COc1ccccc1N1CCN(CC(O)COc2ccc3cc(C(C)=O)oc3c2)CC1 (centres unmarked) [Ex. 4 (HCl salt)]"
readout_value = -114.2

[[record]]
molecule = "COc1ccc(N2CCN(CC(O)COc3cccc4cc(C(C)=O)oc34)CC2)cc1 (centres unmarked) [Ex. 3 (HCl salt)]"
readout_value = -22.9

[[record]]
molecule = "Cc1ccccc1N1CCN(CC(O)COc2ccc3cc(C(N)=O)oc3c2)CC1 (centres unmarked) [Ex. 14]"
readout_value = -67.3

[[record]]
molecule = "COc1ccccc1N1CCN(CC(O)COc2ccc3cc(C(N)=O)oc3c2)CC1 (centres unmarked) [Ex. 11]"
readout_value = -78.8

[[record]]
molecule = "COc1ccc(N2CCN(CC(O)COc3cccc4cc(C(N)=O)oc34)CC2)cc1 (centres unmarked) [Ex. 10]"
readout_value = -97.9

[[record]]
molecule = "Cc1ccccc1N1CCN(CC(O)COc2cccc3cc(C(N)=O)oc23)CC1 (centres unmarked) [Ex. 13]"
readout_value = -97.0

[[record]]
molecule = "COc1ccccc1N1CCN(CC(O)COc2ccc3cc(C#N)oc3c2)CC1 (centres unmarked) [Ex. 17 (HCl salt)]"
readout_value = -40.5

[[record]]
molecule = "CC(=O)c1cc2cccc(OCC(O)CN3CCN(c4ccccc4)CC3)c2o1 (centres unmarked) [Ex. 1 (HCl salt)]"
readout_value = -74.6

